Tested on: VDR homodimer (NR concentration 270 nM)
Assay: PBM binding z-score (relative to random genomic background probes); higher = stronger binding; sequences stand for … in GC…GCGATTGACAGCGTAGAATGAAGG
Each entry gets Condition not met if its PBM binding z-score stays under 1, and Condition met if its PBM binding z-score is 1 or above.

Example entries begin here.
residue_codes=TTACCATGGTGAAAGGTCGTTGATGCACGCCTTG group="Condition met"
residue_codes=ACTAGCAGGCCAAGTTTGTGTCACTCAAACAAAG group="Condition not met"
residue_codes=AGAGCGAGGGCAATGAGTTGATAGCACGGGTGGC group="Condition met"
residue_codes=GCTCTGAGGACAAGGTCAGAGCTTTGTCCGTAGA group="Condition met"
residue_codes=CCTATTACTTGACCATAAGGGCAACCGAAGCTCG group="Condition met"
residue_codes=CGAACTAGGTCAGAACAGGATAGTGAAGGATGAT group="Condition not met"
residue_codes=CTACCAAGGTGTACAAGGTCGTTGATTACTATTC group="Condition met"
residue_codes=TCTATTAATTGAAGGGCAACCGACGAGTCCGTTT group="Condition met"

Hi team, for ATCTCTAGGAAAGACTCAGTTCAGTGAAGAACGC , is the recorded PBM binding z-score at or above 1?
Condition met

Hi team, for TCTTCTAGATCAAGCAGGTTAAGAAAGCCTGAGT , is the recorded PBM binding z-score at or above 1?
Condition not met

Hi team, for TCCTATAGGTAAAAGGTGAAAGTCGGTGTGGTAA , is the recorded PBM binding z-score at or above 1?
Condition not met

Attribution: the supplement of paper PMC6555819
